All values here come from ChEMBL document CHEMBL5532680.

assay: Inhibition of uridine glucuronyl transferase (unknown origin); set-up: species or system Homo sapiens
recorded endpoint: pIC50
Note on units: pIC50 is unitless, being -log10 of a concentration expressed in mol/L.

Prompt: Entry CCOc1ncc2cc(-c3ccc4c(c3)N3CCCC3CO4)c(=O)n(-c3ccc(OC(F)F)cc3)c2n1 (stereo unspecified) has what pIC50?
Completion: 6.10

====

assay: Mean residence time in BALB/c mouse at 10 mg/kg, po measured upto 24 hrs by LC-MS/MS analysis; assay type: ADME, organism-based; settings: in vivo
recorded endpoint: MRT (h)
Expressed in h, but write only the number.

Prompt: MRT lookup needed for CCOc1ncc2cc(-c3ccc4c(c3)N3CCCC3CO4)c(=O)n(-c3ccc(OC(F)F)cc3)c2n1 (stereo unspecified) , thanks.
Completion: 5.1

====

assay: AUC in ICR mouse at 10 mg/kg, po measured upto 24 hrs by LC-MS/MS analysis; assay type: ADME, organism-based; settings: in vivo
recorded endpoint: AUC at 24 h (ng·h/mL)
Enter your answer as a number in ng·h/mL; do not include the unit.

Prompt: Item under review: CCOc1ncc2cc(-c3ccc4c(c3)N3CCCC3CO4)c(=O)n(-c3ccc(OC(F)F)cc3)c2n1 (stereo unspecified) . Reported AUC at 24 h?
Completion: 9710

====

target: Cytochrome P450 2C9 (Homo sapiens, UniProt P11712)
Sequence (P11712 whole entry): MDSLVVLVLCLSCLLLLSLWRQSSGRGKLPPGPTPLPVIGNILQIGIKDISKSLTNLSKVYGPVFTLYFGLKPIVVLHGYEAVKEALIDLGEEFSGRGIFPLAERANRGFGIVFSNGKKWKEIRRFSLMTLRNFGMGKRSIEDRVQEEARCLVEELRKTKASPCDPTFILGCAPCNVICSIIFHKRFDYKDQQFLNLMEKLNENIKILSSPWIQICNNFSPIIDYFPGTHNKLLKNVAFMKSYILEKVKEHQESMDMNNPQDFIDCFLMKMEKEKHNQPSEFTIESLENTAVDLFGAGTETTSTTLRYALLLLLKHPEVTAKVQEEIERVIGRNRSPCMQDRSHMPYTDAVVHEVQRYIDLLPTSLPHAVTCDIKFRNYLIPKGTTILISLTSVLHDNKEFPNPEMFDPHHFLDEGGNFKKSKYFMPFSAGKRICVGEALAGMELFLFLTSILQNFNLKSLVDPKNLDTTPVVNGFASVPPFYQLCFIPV
recorded endpoint: pIC50
# pIC50: negative log10 of molar concentration; output just the value

Prompt: For the molecule shown here, CCOc1ncc2cc(-c3ccc4c(c3)N3CCCC3CO4)c(=O)n(-c3ccc(OC(F)F)cc3)c2n1 (stereo unspecified) , give the reported pIC50.
Completion: 4.51

====

experiment: Intrinsic clearance in human liver microsomes; type: ADME, Microsome; settings: read-out: CLH
recorded endpoint: CLint scaled

Prompt: Give the measured CLint scaled of CCOc1ncc2cc(-c3ccc4c(c3)N3CCCC3CO4)c(=O)n(-c3ccc(OC(F)F)cc3)c2n1 (stereo unspecified) .
Completion: 9.6 mL/min/kg

====

target: S-adenosylmethionine synthase isoform type-2 (Homo sapiens); assay: Inhibition of recombinant human MAT2A expressed in baculovirus infected Sf9 cells using L-methione as substrate preincubated for 15 mins followed by substrate addition and measured after 60 mins in presence of ATP by Kinase-Glo luminescent assay
recorded endpoint: IC50 (nM)
Express your answer in nM, writing the number without its unit.

Prompt: S-adenosylmethionine synthase isoform type-2 (Homo sapiens) / IC50 / CCOc1ncc2cc(-c3ccc4c(c3)N3CCCC3CO4)c(=O)n(-c3ccc(OC(F)F)cc3)c2n1 (stereo unspecified) : value?
Completion: 61

====

assay: Volume of distribution at steady state in ICR mouse at 1 mg/kg, iv measured upto 24 hrs by LC-MS/MS analysis; format: ADME, organism-based; settings: in vivo, read-out: Vdss
recorded endpoint: Vd (L/kg)
Express the result in L/kg but write the number alone.

Prompt: Requested field: Vd. Item: CCOc1ncc2cc(-c3ccc4c(c3)N3CCCC3CO4)c(=O)n(-c3ccc(OC(F)F)cc3)c2n1 (stereo unspecified)
Completion: 3.47

====

assay: Apparent permeability in MDCKII-MDR1 cells; assay type: ADME, cell-based, Canis lupus familiaris; details: dog, MDCK-MDR1
recorded endpoint: Papp
Provide a numeric answer, followed by its unit.

Prompt: Papp for CCOc1ncc2cc(-c3ccc4c(c3)N3CCCC3CO4)c(=O)n(-c3ccc(OC(F)F)cc3)c2n1 (stereo unspecified) ?
Completion: 13.4 ×10⁻⁶ cm/s

====

target: UniProtKB P10635
Sequence (P10635 whole entry): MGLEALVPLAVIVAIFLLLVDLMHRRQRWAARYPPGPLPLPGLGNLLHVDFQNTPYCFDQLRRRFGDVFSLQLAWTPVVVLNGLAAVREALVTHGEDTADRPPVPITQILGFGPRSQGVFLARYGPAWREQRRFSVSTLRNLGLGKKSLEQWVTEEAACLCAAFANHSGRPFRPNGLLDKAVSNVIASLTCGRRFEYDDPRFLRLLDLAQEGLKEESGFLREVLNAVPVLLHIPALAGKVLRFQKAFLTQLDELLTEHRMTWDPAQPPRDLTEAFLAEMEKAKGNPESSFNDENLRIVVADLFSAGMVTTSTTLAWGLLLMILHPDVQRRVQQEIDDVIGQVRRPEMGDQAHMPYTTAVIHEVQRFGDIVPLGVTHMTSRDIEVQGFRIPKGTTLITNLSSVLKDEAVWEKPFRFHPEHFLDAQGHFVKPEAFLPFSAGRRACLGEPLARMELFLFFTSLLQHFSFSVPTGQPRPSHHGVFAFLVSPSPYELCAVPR
recorded endpoint: IC50
# number then unit; no other words

Prompt: Name the reported IC50 value associated with the compound CCOc1ncc2cc(-c3ccc4c(c3)N3CCCC3CO4)c(=O)n(-c3ccc(OC(F)F)cc3)c2n1 (stereo unspecified)
Completion: 39 µM

====

test: Half-life in ICR mouse at 10 mg/kg, po measured upto 24 hrs by LC-MS/MS analysis; format: ADME, organism-based; conditions: in vivo
recorded endpoint: half-life
Remember to quote the unit after the number.

Prompt: I have this compound here, CCOc1ncc2cc(-c3ccc4c(c3)N3CCCC3CO4)c(=O)n(-c3ccc(OC(F)F)cc3)c2n1 (stereo unspecified) , and I need its recorded half-life.
Completion: 2.9 h

====

biological target: S-adenosylmethionine synthase isoform type-2 (Homo sapiens, UniProt P31153); assay: Induction of MAT2A degradation in human HCT-116 cells preincubated for 4 hrs followed by 1.0 MHz, 0.8W/cm2 ultrasound treatment for 0.5 mins by Western blotting assay
Sequence (P31153 whole entry, canonical isoform): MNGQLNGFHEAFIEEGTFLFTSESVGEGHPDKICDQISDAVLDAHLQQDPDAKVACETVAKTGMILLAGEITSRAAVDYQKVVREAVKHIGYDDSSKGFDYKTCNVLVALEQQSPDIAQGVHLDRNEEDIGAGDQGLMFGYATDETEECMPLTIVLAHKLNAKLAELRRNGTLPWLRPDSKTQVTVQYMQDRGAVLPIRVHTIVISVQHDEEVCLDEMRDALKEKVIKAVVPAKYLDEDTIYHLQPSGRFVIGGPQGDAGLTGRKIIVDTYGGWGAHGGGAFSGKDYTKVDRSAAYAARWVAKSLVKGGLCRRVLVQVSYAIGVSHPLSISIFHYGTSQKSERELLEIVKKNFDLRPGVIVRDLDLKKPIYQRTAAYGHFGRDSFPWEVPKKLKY
recorded endpoint: pEC50
Here pEC50 is given on a logarithmic scale as minus log10 of the concentration in mol/L.

Prompt: Item under review: CCOc1ncc2cc(-c3ccc4c(c3)N3CCCC3CO4)c(=O)n(-c3ccc(OC(F)F)cc3)c2n1 (stereo unspecified) . Reported pEC50?
Completion: 6.44

====

tested on: MDR1 (P-gp); experiment: Efflux ratio of apparent permeability in MDCKII-MDR1 cells; format: ADME, cell-based, Canis lupus familiaris; settings: dog, MDCK-MDR1
recorded endpoint: efflux ratio

Prompt: Need efflux ratio, item CCOc1ncc2cc(-c3ccc4c(c3)N3CCCC3CO4)c(=O)n(-c3ccc(OC(F)F)cc3)c2n1 (stereo unspecified)
Completion: 0.9

====

experiment: Oral bioavailability in ICR mouse at 10 mg/kg measured upto 24 hrs by LC-MS/MS analysis; assay type: ADME, organism-based; conditions: in vivo
recorded endpoint: bioavailability (%)
I only need the number, in %, no unit after it.

Prompt: Suppose we examine the compound CCOc1ncc2cc(-c3ccc4c(c3)N3CCCC3CO4)c(=O)n(-c3ccc(OC(F)F)cc3)c2n1 (stereo unspecified) ; what bioavailability value has been reported?
Completion: 77

====

experiment: Half-life in ICR mouse at 1 mg/kg, iv measured upto 24 hrs by LC-MS/MS analysis; format: ADME, organism-based; settings: in vivo
recorded endpoint: half-life (h)
// units = h; emit number, no label

Prompt: I'd like to know its half-life. The molecule in question is CCOc1ncc2cc(-c3ccc4c(c3)N3CCCC3CO4)c(=O)n(-c3ccc(OC(F)F)cc3)c2n1 (stereo unspecified)
Completion: 1.6

====

molecular target: Cytochrome P450 1A2 (Homo sapiens, UniProt P05177)
Sequence (P05177 whole entry): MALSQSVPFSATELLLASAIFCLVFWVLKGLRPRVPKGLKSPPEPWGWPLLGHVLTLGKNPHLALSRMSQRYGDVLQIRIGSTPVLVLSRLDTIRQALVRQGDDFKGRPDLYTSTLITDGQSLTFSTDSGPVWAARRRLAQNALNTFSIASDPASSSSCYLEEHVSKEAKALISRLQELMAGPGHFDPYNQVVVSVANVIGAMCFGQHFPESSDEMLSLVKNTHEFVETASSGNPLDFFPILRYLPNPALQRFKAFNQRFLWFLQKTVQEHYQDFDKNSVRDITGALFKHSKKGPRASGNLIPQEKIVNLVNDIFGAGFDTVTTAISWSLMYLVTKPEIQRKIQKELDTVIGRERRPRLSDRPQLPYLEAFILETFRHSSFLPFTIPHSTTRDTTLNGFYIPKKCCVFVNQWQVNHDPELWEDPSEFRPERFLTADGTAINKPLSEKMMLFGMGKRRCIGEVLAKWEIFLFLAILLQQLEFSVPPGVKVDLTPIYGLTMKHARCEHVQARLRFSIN
pIC50: −log10 of the molar value.
recorded endpoint: pIC50

Prompt: What value of measured pIC50 is listed for CCOc1ncc2cc(-c3ccc4c(c3)N3CCCC3CO4)c(=O)n(-c3ccc(OC(F)F)cc3)c2n1 (stereo unspecified) ?
Completion: < 4.30
